Test System: p38α (Homo sapiens, UniProt Q16539)
Construct: c-myc (N); 6His (N)
Sequence (Q16539 whole entry): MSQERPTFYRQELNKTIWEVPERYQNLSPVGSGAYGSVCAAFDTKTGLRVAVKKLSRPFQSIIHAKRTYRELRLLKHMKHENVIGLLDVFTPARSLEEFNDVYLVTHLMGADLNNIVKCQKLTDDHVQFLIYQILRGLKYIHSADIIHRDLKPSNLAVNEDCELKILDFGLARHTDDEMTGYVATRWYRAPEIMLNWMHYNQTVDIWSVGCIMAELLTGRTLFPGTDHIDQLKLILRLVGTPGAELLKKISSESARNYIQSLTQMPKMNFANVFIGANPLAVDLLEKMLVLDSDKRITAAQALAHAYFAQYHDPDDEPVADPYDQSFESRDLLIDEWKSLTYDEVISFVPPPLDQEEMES
Test Summary: In vitro enzyme assay, p38α isoform
Experimental Setup: read-out: IC50 against p38α
Method: The ability of compounds of the invention to inhibit the enzyme p38 kinase was assessed. Activity of particular test compounds against each of the p38α and p38β isoforms of the enzyme was determined. […] Test compounds were solubilised in DMSO and 10 μl of a 1:10 diluted sample in ‘Kinase Buffer’ was added to a well in a Microtiter plate. […] The precipitated protein was phosphorylated by p38 kinase and test compounds were assessed for their ability to inhibit this phosphorylation. […]
Each entry below carries its recorded IC50.
Test Readout: IC50

| Compound | Test Readout | Measured Value |
| --- | --- | --- |
| Cc1ccc(NC(=O)CCC2CCCCC2)cc1NC(=O)c1ccc(O)cc1 | IC50 | ~400 nM |
| Cc1ccc(NC(=O)c2cccc(N3CCOCC3)c2)cc1NC(=O)c1cccc(N2CCOCC2)c1 [Example 9, Compound No. 50] | IC50 | ~40 nM |
| COc1ccc(C(=O)Nc2cc(NC(=O)c3cccc(N(C)C)c3)ccc2C)cc1OC [Example 9, Compound No. 7] | IC50 | ~200 nM |
| Cc1ccc(NC(=O)c2ccccc2)cc1NC(=O)c1cccc(CN2CCN(C)CC2)c1 [Example 9, Compound No. 51] | IC50 | ~700 nM |
| COc1ccc(C(=O)Nc2cc(NC(=O)c3cccc(N)c3)ccc2C)cc1OC [Example 13] | IC50 | ~700 nM |
| Cc1ccc(NC(=O)c2c(F)cccc2Cl)cc1NC(=O)c1ccc(O)cc1 [Example 9, Compound No. 12] | IC50 | ~1700 nM |
| Cc1ccc(NC(=O)CCC2CCCC2)cc1NC(=O)c1ccc(O)cc1 | IC50 | ~6000 nM |
